Cited source for all entries: ChEMBL document CHEMBL4819011

- targetOrSystem: Mitogen-activated protein kinase kinase kinase 5 (Homo sapiens, UniProt Q99683)
- Sequence (Q99683 whole entry): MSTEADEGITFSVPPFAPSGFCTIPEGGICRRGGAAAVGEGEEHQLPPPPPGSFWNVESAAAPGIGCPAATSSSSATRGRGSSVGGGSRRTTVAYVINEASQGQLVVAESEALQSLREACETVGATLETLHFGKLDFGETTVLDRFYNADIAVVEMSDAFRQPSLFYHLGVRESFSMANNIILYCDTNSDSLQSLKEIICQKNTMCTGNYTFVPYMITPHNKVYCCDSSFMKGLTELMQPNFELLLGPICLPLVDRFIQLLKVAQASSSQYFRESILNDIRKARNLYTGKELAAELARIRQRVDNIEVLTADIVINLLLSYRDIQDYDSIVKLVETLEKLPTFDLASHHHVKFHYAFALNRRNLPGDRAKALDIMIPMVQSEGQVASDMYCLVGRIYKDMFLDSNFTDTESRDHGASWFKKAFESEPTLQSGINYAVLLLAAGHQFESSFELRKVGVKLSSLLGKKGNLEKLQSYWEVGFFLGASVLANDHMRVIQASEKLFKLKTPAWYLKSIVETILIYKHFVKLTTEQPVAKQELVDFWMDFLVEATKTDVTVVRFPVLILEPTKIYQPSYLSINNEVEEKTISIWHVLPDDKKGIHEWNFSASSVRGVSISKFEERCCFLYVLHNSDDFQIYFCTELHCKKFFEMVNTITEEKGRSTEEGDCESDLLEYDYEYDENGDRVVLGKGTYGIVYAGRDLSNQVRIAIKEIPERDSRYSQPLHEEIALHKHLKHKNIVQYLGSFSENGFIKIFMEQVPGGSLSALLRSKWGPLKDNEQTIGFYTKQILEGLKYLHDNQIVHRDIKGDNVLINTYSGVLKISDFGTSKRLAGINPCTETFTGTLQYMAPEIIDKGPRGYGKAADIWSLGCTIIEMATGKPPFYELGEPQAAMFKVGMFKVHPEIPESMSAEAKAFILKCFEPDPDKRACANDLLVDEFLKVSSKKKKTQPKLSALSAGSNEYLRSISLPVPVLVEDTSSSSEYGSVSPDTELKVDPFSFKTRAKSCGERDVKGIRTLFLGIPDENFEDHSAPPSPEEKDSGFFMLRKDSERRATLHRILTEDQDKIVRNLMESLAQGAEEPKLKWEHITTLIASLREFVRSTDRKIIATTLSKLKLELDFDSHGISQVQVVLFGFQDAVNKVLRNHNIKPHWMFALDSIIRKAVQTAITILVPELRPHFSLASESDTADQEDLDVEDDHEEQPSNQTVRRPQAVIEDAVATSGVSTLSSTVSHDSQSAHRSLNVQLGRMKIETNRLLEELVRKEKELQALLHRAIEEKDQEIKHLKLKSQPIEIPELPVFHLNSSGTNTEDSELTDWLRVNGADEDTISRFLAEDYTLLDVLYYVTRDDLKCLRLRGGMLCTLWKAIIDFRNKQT
- testDescription: Inhibition of N-terminal GST-tagged recombinant human full length ASK1 expressed in baculovirus-infected Sf21 cells using STK-Substrate-3 biotin as substrate in presence of ATP measured after 2 hrs by HTRF assay
experimentalEndpoint: pIC50
pIC50 here: minus log base 10 of the concentration, concentration in moles per litre.

Q) Please look at this molecule and report its pIC50: "CC(C)n1cnnc1-c1cccc(NC(=O)c2cc3cccc(-c4cn[nH]c4)c3[nH]2)n1"
A) 7.41

Q) Give a short answer stating reported pIC50 for "CC(C)n1cnnc1-c1cccc(NC(=O)c2cc3cccnc3[nH]2)n1" .
A) 6.90

Q) Please look at this molecule and report its pIC50: "CC(C)n1cnnc1-c1cccc(NC(=O)c2cc3cccc(-c4ccsc4)c3[nH]2)n1"
A) 6.81

Q) State its pIC50: "CC(C)n1cnnc1-c1cccc(NC(=O)c2cc3cccc(-c4ccncc4)c3[nH]2)n1"
A) 7.64

Q) Provide pIC50 value for the following molecule: "CC(C)n1cnnc1-c1cccc(NC(=O)c2cc3ccccc3o2)n1"
A) 6.82

Q) Give the reported value of pIC50 for this record: "C[C@H](CO)n1cnnc1-c1cccc(NC(=O)c2cc3ccccc3[nH]2)n1"
A) 7.18

Q) Please supply the value of reported pIC50 for the item "CC(C)n1cnnc1-c1cccc(NC(=O)c2cc3ccccc3[nH]2)n1"
A) 7.38

Q) Quote pIC50 reported for "CC(C)n1cnnc1-c1cccc(NC(=O)c2cc3ccc(-c4cnn(C5CCOCC5)c4)cc3[nH]2)n1" please.
A) 7.13

Q) Please indicate pIC50 recorded for "CC(C)n1cnnc1-c1cccc(NC(=O)c2cc3c(-c4cnn(C)c4)cccc3[nH]2)n1"
A) 7.71

Q) For the molecule "COc1ccc2cc(C(=O)Nc3cccc(-c4nncn4C(C)C)n3)[nH]c2c1" , report pIC50.
A) 7.27

Q) For the molecule "CC(=O)Nc1cccc2cc(C(=O)Nc3cccc(-c4nncn4C(C)C)n3)[nH]c12" , give its measured pIC50 value.
A) 6.62

Q) Assign pIC50 to the following record: "CC(C)n1cnnc1-c1cccc(NC(=O)c2cc3ccccc3n2C)n1"
A) 6.13

Q) Report measured pIC50; entry is "Cc1c(C(=O)Nc2cccc(-n3cnnn3)c2)oc2ccccc12"
A) 4.78

Q) Give a short answer stating reported pIC50 for "CC(C)n1cnnc1-c1cccc(NC(=O)c2[nH]c3ccccc3c2-c2ccoc2)n1" .
A) 6.85

Q) Tell me pIC50 reported for "CC(C)n1cnnc1-c1cccc(NC(=O)c2cc3ccc(-c4cccnc4)cc3[nH]2)n1"
A) 7.16

Q) Fill in pIC50 for record "CC(C)n1cnnc1-c1cccc(NC(=O)c2nc3ccccc3s2)n1"
A) 6.30

Q) Give the value of pIC50 reported for the following: "Cc1c(C(=O)Nc2cccc(-c3nncn3C(C)C)n2)[nH]c2ccccc12"
A) 7.05

Q) Let me know recorded pIC50 for "Cc1c(C(=O)Nc2cccc(-c3nncn3C(C)C)n2)oc2ccccc12" , thanks.
A) 5.96

Q) Let me know recorded pIC50 for CCOC(C)n1cc(-c2ccc3cc(C(=O)Nc4cccc(-c5nncn5C(C)C)n4)[nH]c3c2)cn1 (configuration not stated) , thanks.
A) 7.04

Q) Please indicate pIC50 recorded for "CC(C)n1cnnc1-c1cccc(NC(=O)c2cc3ccc(-c4cn[nH]c4)cc3[nH]2)n1"
A) 7.43

Q) Specify pIC50 for "CC(C)n1cnnc1-c1cccc(NC(=O)c2cc3cccc(Cl)c3[nH]2)n1" and stop.
A) 7.05

Q) Supply measured pIC50 of "CC(C)n1cnnc1-c1cccc(NC(=O)c2cc3cc(-c4cn[nH]c4)ccc3[nH]2)n1" in your reply.
A) 7.50
